We begin with a simple list: items and their reported Percentage (%) bound of compound to 14-3-3σ, CRAF 24h.
target: 14-3-3σ/C-RAF (Homo sapiens, UniProt P31947); construct: The 14-3-3 σ isoform (full-length for mass spectrometry and fluorescence anisotropy assays, ΔC for crystallography); made in house; host or cells: E. coli Rosetta 2(DE3)pLysS, pPROEX HTb vector; assay: Mass spectrometry dose response, compound binding to 14-3-3σ in the presence of C-RAF phosphopeptide; settings: 100 nM compound, 100 nM 14-3-3σ, C-RAF peptide 18 µM, head prints 24h
Sequence (P31947 whole entry, canonical isoform): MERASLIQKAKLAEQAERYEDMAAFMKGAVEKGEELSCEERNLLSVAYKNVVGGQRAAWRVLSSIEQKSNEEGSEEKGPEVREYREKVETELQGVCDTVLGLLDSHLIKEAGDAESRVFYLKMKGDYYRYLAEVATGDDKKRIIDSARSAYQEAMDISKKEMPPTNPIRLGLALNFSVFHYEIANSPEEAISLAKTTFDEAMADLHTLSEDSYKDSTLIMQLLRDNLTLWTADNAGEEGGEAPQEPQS
Readout Name: Percentage (%) bound of compound to 14-3-3σ, CRAF 24h

[[record]]
compound = "O=C(CCl)NCC1CCN(C(=O)C2(Oc3ccccc3)CCCC2)CC1"
experimental_system = "14-3-3σ/C-RAF (Homo sapiens, UniProt P31947)"
endpoint_result = 28.5

[[record]]
compound = "NC1CCC(Nc2ccc(Cl)cc2)(C(=O)N2CCC(CNC(=O)CCl)CC2)CC1 (stereo not drawn)"
experimental_system = "14-3-3σ/C-RAF (Homo sapiens, UniProt P31947)"
endpoint_result = 6.6

[[record]]
compound = "CC1(C)CC(Nc2ccc(Cl)cc2)(C(=O)N2CCC(CNC(=O)CCl)CC2)CC(C)(C)O1"
experimental_system = "14-3-3σ/C-RAF (Homo sapiens, UniProt P31947)"
endpoint_result = 0

[[record]]
compound = "CC1CC(Nc2ccc(Cl)cc2)(C(=O)NCC2CC3(CCN(C(=O)CCl)CC3)C2)CC(C)O1 (stereo not drawn)"
experimental_system = "14-3-3σ/C-RAF (Homo sapiens, UniProt P31947)"
endpoint_result = 4.5

[[record]]
compound = "O=C(CCl)NCC1CCN(C(=O)C2(Nc3ccccc3)CCC2)CC1"
experimental_system = "14-3-3σ/C-RAF (Homo sapiens, UniProt P31947)"
endpoint_result = 0

[[record]]
compound = "O=C(CCl)NCC1CCN(C(=O)C2(Nc3ccccc3)CCCCC2)CC1"
experimental_system = "14-3-3σ/C-RAF (Homo sapiens, UniProt P31947)"
endpoint_result = 0


Origin of measurements: paper PMC10515640
